This listing pairs compounds with measured pIC50.
# protocol-notes: Inhibition of bovine trypsin
# Design: species or system Bos taurus
pIC50: −log10 of the molar value.
result-type: pIC50

> print(dat)
                                        mol  result.type  reported.value
1  O=C1C2=C(CCCC2)S(=O)(=O)N1c1ccncc1.[O-][Cl+3]([O-])([O-])O        pIC50          < 4.00
2    O=C1C2=C(CCCC2)S(=O)(=O)N1c1ncc(F)cc1F        pIC50          < 4.00
3  O=C1c2ccccc2S(=O)(=O)N1c1c(F)c(F)nc(F)c1F        pIC50            5.12
4  CC1=C(C)S(=O)(=O)N(c2c(F)c(F)nc(F)c2F)C1=O        pIC50          < 4.00
5  O=C1C2=C(CCCC2)S(=O)(=O)N1c1c(F)c(F)c(F)c(F)c1F        pIC50          < 4.00
